test.details: Toxicokinetics in the 28 day dog study of DIO-902 (with racemic ketoconazole group a)
run.parameters: male, beagle, plasma, po, 6.5 mg/kg, Drug concentration in plasma, dogs, 6.5 mg/kg oral, day 28, M, 12 h

- molecule.smiles: "CC(=O)N1CCN(c2ccc(OC[C@@H]3CO[C@@](Cn4ccnc4)(c4ccc(Cl)cc4Cl)O3)cc2)CC1"
  concentration at 12 h / µg/mL: 0.88

----------
test.details: Toxicokinetics in the 28 day dog study of DIO-902 (with racemic ketoconazole group a)
run.parameters: male, beagle, plasma, po, 20 mg/kg, Cmax, dogs, group a: 20 mg/kg oral (after 40 mg/kg days 1-9, pause), day 28, M

- molecule: "CC(=O)N1CCN(c2ccc(OCC3COC(Cn4ccnc4)(c4ccc(Cl)cc4Cl)O3)cc2)CC1 (racemic) [Racemic ketoconazole]"
  readout.units: "ng/mL"
  Cmax: 510

----------
test.details: Toxicokinetics in the 28 day dog study of DIO-902 (with racemic ketoconazole group a)
run.parameters: male, beagle, plasma, po, 6.5 mg/kg, Drug concentration in plasma, dogs, 6.5 mg/kg oral, day 1, M, 8 h
recorded.endpoint: concentration at 8 h (ng/mL)

- molecule.smiles: "CC(=O)N1CCN(c2ccc(OC[C@@H]3CO[C@@](Cn4ccnc4)(c4ccc(Cl)cc4Cl)O3)cc2)CC1"
  recorded.endpoint: "concentration at 8 h"
  result: 410

----------
test.details: Toxicokinetics in the 28 day dog study of DIO-902 (with racemic ketoconazole group a)
run.parameters: female, beagle, plasma, po, 20 mg/kg, Drug concentration in plasma, dogs, 20 mg/kg oral, day 28, F, 0 h

- molecule.smiles: "CC(=O)N1CCN(c2ccc(OC[C@@H]3CO[C@@](Cn4ccnc4)(c4ccc(Cl)cc4Cl)O3)cc2)CC1"
  concentration at 0 h: "2880 ng/mL"

----------
test.details: Toxicokinetics in the 28 day dog study of DIO-902 (with racemic ketoconazole group a)
run.parameters: female, beagle, plasma, po, 20 mg/kg, Drug concentration in plasma, dogs, 20 mg/kg oral, day 28, F, 12 h
recorded.endpoint: concentration at 12 h (ng/mL)

- molecule.smiles: "CC(=O)N1CCN(c2ccc(OC[C@@H]3CO[C@@](Cn4ccnc4)(c4ccc(Cl)cc4Cl)O3)cc2)CC1"
  recorded.endpoint: "concentration at 12 h"
  result: 6530

----------
test.details: Toxicokinetics in the 28 day dog study of DIO-902 (with racemic ketoconazole group a)
run.parameters: both, beagle, plasma, oral, 20 mg/kg, Tmax values, dogs, 2, 6.5 and 20 mg/kg, Day 28

- molecule.smiles: "CC(=O)N1CCN(c2ccc(OC[C@@H]3CO[C@@](Cn4ccnc4)(c4ccc(Cl)cc4Cl)O3)cc2)CC1"
  Tmax: "1 to 12 h"

----------
test.details: Toxicokinetics in the 28 day dog study of DIO-902 (with racemic ketoconazole group a)
run.parameters: female, beagle, plasma, po, 40 mg/kg, Drug concentration in plasma, dogs, group a: 40 mg/kg oral, day 1, F, 2 h

- compound: "CC(=O)N1CCN(c2ccc(OCC3COC(Cn4ccnc4)(c4ccc(Cl)cc4Cl)O3)cc2)CC1 (racemic) [Racemic ketoconazole]"
  concentration at 2 h: "12300 ng/mL"

----------
test.details: Toxicokinetics in the 28 day dog study of DIO-902 (with racemic ketoconazole group a)
run.parameters: female, beagle, plasma, po, 40 mg/kg, Drug concentration in plasma, dogs, group a: 40 mg/kg oral, day 1, F, 4 h

- compound: "CC(=O)N1CCN(c2ccc(OCC3COC(Cn4ccnc4)(c4ccc(Cl)cc4Cl)O3)cc2)CC1 (racemic) [Racemic ketoconazole]"
  concentration at 4 h, ng/mL: 20100

----------
test.details: Toxicokinetics of racemic ketoconazole in another 28-day dog study (b)
run.parameters: female, beagle, dog, plasma, po, 10 mg/kg, AUC(0-12), dogs, study b, powder, 10 mg/kg oral, day 28, F; footnote: AUC data is for 0-24 h

- compound: "CC(=O)N1CCN(c2ccc(OCC3COC(Cn4ccnc4)(c4ccc(Cl)cc4Cl)O3)cc2)CC1 (racemic) [Racemic ketoconazole]"
  AUC(0-t), ng·h/mL: 33100

----------
test.details: Toxicokinetics in the 28 day dog study of DIO-902 (with racemic ketoconazole group a)
run.parameters: male, beagle, plasma, po, 2 mg/kg, Tmax Range, dogs, 2 mg/kg oral, day 28, M
recorded.endpoint: Tmax

- molecule.smiles: "CC(=O)N1CCN(c2ccc(OC[C@@H]3CO[C@@](Cn4ccnc4)(c4ccc(Cl)cc4Cl)O3)cc2)CC1"
  result: "1 to 4 h"

----------
test.details: Toxicokinetics in the 28 day dog study of DIO-902 (with racemic ketoconazole group a)
run.parameters: male, beagle, plasma, oral, 20 mg/kg, Drug concentration in plasma, dogs, group a: 20 mg/kg oral (after 40 mg/kg days 1-9, pause), day 28, M, 1 h
recorded.endpoint: concentration at 1 h

- compound: "CC(=O)N1CCN(c2ccc(OCC3COC(Cn4ccnc4)(c4ccc(Cl)cc4Cl)O3)cc2)CC1 (racemic) [Racemic ketoconazole]"
  result: "< 250 ng/mL"

----------
test.details: Toxicokinetics of racemic ketoconazole in another 28-day dog study (b)
run.parameters: male, beagle, dog, plasma, po, 10 mg/kg, Cmax, dogs, study b, powder, 10 mg/kg oral, day 1, M

- molecule: "CC(=O)N1CCN(c2ccc(OCC3COC(Cn4ccnc4)(c4ccc(Cl)cc4Cl)O3)cc2)CC1 (racemic) [Racemic ketoconazole]"
  Cmax (ng/mL): 1430

----------
test.details: Toxicokinetics in the 28 day dog study of DIO-902 (with racemic ketoconazole group a)
run.parameters: male, beagle, plasma, po, 6.5 mg/kg, Drug concentration in plasma, dogs, 6.5 mg/kg oral, day 28, M, 0 h

- molecule: "CC(=O)N1CCN(c2ccc(OC[C@@H]3CO[C@@](Cn4ccnc4)(c4ccc(Cl)cc4Cl)O3)cc2)CC1 [DIO-902]"
  concentration at 0 h: "< 250 ng/mL"

----------
test.details: Toxicokinetics of racemic ketoconazole in another 28-day dog study (b)
run.parameters: male, beagle, dog, plasma, po, 10 mg/kg, Tmax Range, dogs, study b, powder, 10 mg/kg oral, day 28, M

- compound: "CC(=O)N1CCN(c2ccc(OCC3COC(Cn4ccnc4)(c4ccc(Cl)cc4Cl)O3)cc2)CC1 (racemic) [Racemic ketoconazole]"
  Tmax: "1 to 2 h"

----------
test.details: Toxicokinetics in the 28 day dog study of DIO-902 (with racemic ketoconazole group a)
run.parameters: male, beagle, plasma, po, 6.5 mg/kg, Drug concentration in plasma, dogs, 6.5 mg/kg oral, day 1, M, 0 h
recorded.endpoint: concentration at 0 h

- molecule.smiles: "CC(=O)N1CCN(c2ccc(OC[C@@H]3CO[C@@](Cn4ccnc4)(c4ccc(Cl)cc4Cl)O3)cc2)CC1"
  result: "< 250 ng/mL"

----------
test.details: Toxicokinetics in the 28 day dog study of DIO-902 (with racemic ketoconazole group a)
run.parameters: female, beagle, plasma, po, 6.5 mg/kg, Drug concentration in plasma, dogs, 6.5 mg/kg oral, day 28, F, 8 h
recorded.endpoint: concentration at 8 h (ng/mL)

- molecule.smiles: "CC(=O)N1CCN(c2ccc(OC[C@@H]3CO[C@@](Cn4ccnc4)(c4ccc(Cl)cc4Cl)O3)cc2)CC1"
  result: 1270

----------
test.details: Toxicokinetics in the 28 day dog study of DIO-902 (with racemic ketoconazole group a)
run.parameters: female, beagle, plasma, po, 20 mg/kg, Drug concentration in plasma, dogs, 20 mg/kg oral, day 1, F, 2 h

- molecule.smiles: "CC(=O)N1CCN(c2ccc(OC[C@@H]3CO[C@@](Cn4ccnc4)(c4ccc(Cl)cc4Cl)O3)cc2)CC1"
  concentration at 2 h [ng/mL]: 650

----------
test.details: Toxicokinetics in the 28 day dog study of DIO-902 (with racemic ketoconazole group a)
run.parameters: male, beagle, plasma, po, 40 mg/kg, Drug concentration in plasma, dogs, group a: 40 mg/kg oral, day 1, M, 8 h

- molecule: "CC(=O)N1CCN(c2ccc(OCC3COC(Cn4ccnc4)(c4ccc(Cl)cc4Cl)O3)cc2)CC1 (racemic) [Racemic ketoconazole]"
  concentration at 8 h, ng/mL: 16600

----------
test.details: Toxicokinetics of racemic ketoconazole in another 28-day dog study (b)
run.parameters: male, beagle, dog, plasma, po, 10 mg/kg, Drug concentration in plasma, dogs, study b, powder, 10 mg/kg oral, day 1, M, 12 h
Excerpt: Two groups of three male and three female dogs per group were studied. Toxicokinetic samples were collected on Day 1 and during Weeks 2 and 4. […] For the following Table: *Days of treatment.
recorded.endpoint: concentration at 12 h

- compound: "CC(=O)N1CCN(c2ccc(OCC3COC(Cn4ccnc4)(c4ccc(Cl)cc4Cl)O3)cc2)CC1 (racemic) [Racemic ketoconazole]"
  result: "< 250 ng/mL"

----------
test.details: Toxicokinetics in the 28 day dog study of DIO-902 (with racemic ketoconazole group a);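 note: beagle dogs dosed orally once daily within a 28-day GLP study, 3 animals per sex per group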
run.parameters: female, beagle, plasma, po, 20 mg/kg, Drug concentration in plasma, dogs, 20 mg/kg oral, day 28, F, 8 h
recorded.endpoint: concentration at 8 h (ng/mL)

- molecule.smiles: "CC(=O)N1CCN(c2ccc(OC[C@@H]3CO[C@@](Cn4ccnc4)(c4ccc(Cl)cc4Cl)O3)cc2)CC1"
  result: 9830

Ref: patent US11478471B2
